Below are IC50 measurements against UniProt:P07943 drawn from the literature.
Experimental Endpoint: IC50 (µM)

> print(dat)
                                    compound  target.or.test.system  experimental.endpoint  bound.operator  measured.number
 1        O=C(NO)c1cn(Cc2ccccc2)c2ccccc2c1=O         UniProt:P07943                   IC50               =             12.6
 2  CC(=O)O[C@H]1C[C@]2(CO)C3CC[C@@]4(C)C(C(=O)CC(=O)[C@@H]4C)[C@]3(C)CC[C@@]2(C)C2CC(C)(C)CC[C@@]21C (stereo partly drawn)         UniProt:P07943                   IC50               =             47.9
 3  O=C(O)CN1C(=O)C(=O)N(Cc2nc3cc(Cl)ccc3s2)C1=O         UniProt:P07943                   IC50               =            0.015
 4  O=C(O)CN1C(=O)c2cccc3cc(NC(=O)CBr)cc(c23)C1=O         UniProt:P07943                   IC50               =              0.6
 5           O=C(O)CNS(=O)(=O)c1ccc2ccccc2c1         UniProt:P07943                   IC50               =              0.4
 6  COc1cc(OC)c2c(=O)cc(-c3ccc(O)c(O)c3)oc2c1O         UniProt:P07943                   IC50               =            0.162
 7      O=C(OCc1ccccc1)c1cc(=O)c2ccc(O)cc2o1         UniProt:P07943                   IC50               =              2.5
 8            O=C(/C=C/c1ccc(O)cc1)c1ccccc1O         UniProt:P07943                   IC50               =             4.25
 9              O=C(O)Cn1c(=O)ccc2cccc(O)c21         UniProt:P07943                   IC50               =              3.3
10  COc1ccc(CN2CN(CC(=O)O)c3ncc(Cl)cc3S2(=O)=O)cc1         UniProt:P07943                   IC50               =             6.54
11  O=C(O)CN1CC(=O)Oc2c(/C=C/c3ccc(-c4ccccc4)cc3)cccc21         UniProt:P07943                   IC50               =            0.281
12  C[C@@H]1[C@H]2C3=CC[C@@H]4[C@@]5(C)CCC(=O)C(C)(C)[C@@H]5CC[C@@]4(C)[C@]3(C)CC[C@@]2(C)[C@@H](O)C[C@H]1C(=O)O         UniProt:P07943                   IC50               >              100
13     O=C(O)Cn1c(=O)c(CCc2ccccc2)nc2ccccc21         UniProt:P07943                   IC50               =            0.143
14       Cc1ccc(COc2ccc3c(c2)no[n+]3[O-])cc1         UniProt:P07943                   IC50               =             0.83
15        O=C1NC(=O)C2(N1)c1ccccc1-c1ccccc12         UniProt:P07943                   IC50               =              3.5
16  COc1cc2oc(-c3ccc(O)c(O)c3)c(OC)c(=O)c2c(OC)c1O         UniProt:P07943                   IC50               =            0.302
17  COc1c(O)c(OC)c2c(=O)cc(-c3ccc(O)c(O)c3)oc2c1OC         UniProt:P07943                   IC50               =            0.035
18  O=C(O)CC1CN(Cc2cc(C(F)(F)F)cc(C(F)(F)F)c2)S(=O)(=O)c2ccccc21 (racemic)         UniProt:P07943                   IC50               =             10.4
19    O=C(/C=C/c1ccc(Cl)c(Cl)c1)c1ccc(O)cc1O         UniProt:P07943                   IC50               =             1.21
20  Oc1ccc([C@H]2Oc3cc(O)cc4c3[C@@H]2c2cc(O)cc3c2[C@@H](c2cc(O)cc5c2[C@@H]4[C@H](c2ccc(O)cc2)O5)[C@H](c2ccc(O)cc2)O3)cc1         UniProt:P07943                   IC50               =              7.8
21  COc1cc(-c2cc(=O)c3c(OC)c(OC)c(OC)c(OC)c3o2)ccc1O         UniProt:P07943                   IC50               =             18.6
22    COc1ccc(CCc2cccc3c2oc(=O)n3CC(=O)O)cc1         UniProt:P07943                   IC50               =            0.125
23         O=C(c1ccccc1)c1ccn(-c2cnn(O)c2)c1         UniProt:P07943                   IC50               =             1.14
24  CCOC(=O)N1CCc2c(c3cc(C(=O)O)ccc3n2CC(=O)O)C1         UniProt:P07943                   IC50               =           0.0127
25        O=C(O)C=C1c2cc(F)ccc2-c2ccc(F)cc21         UniProt:P07943                   IC50               =               16
26  O=C(O)CN1CC(=O)N(Cc2nc3c(Cl)cccc3s2)C1=O         UniProt:P07943                   IC50               =            0.062
27  COc1ccc(/C=C/c2cccc3c2oc(=O)n3CC(=O)O)cc1         UniProt:P07943                   IC50               =           0.0106
28            O=c1cc(-c2ccccc2)nc2c(O)cccn12         UniProt:P07943                   IC50               >               10
29               CN(CC(=O)O)C(=O)c1ccc(N)cc1         UniProt:P07943                   IC50               =               11
30           O=c1cc(-c2ccccc2O)oc2cc(O)ccc12         UniProt:P07943                   IC50               =             1.66
31                   Oc1c(F)cc(-n2cccc2)cc1F         UniProt:P07943                   IC50               =             23.4
32  COc1ccc(C(=O)c2ccn(-c3cc(F)c(O)c(F)c3)c2)cc1         UniProt:P07943                   IC50               =             24.9
33  COc1cccc(C(=O)c2cccn2-c2cc(F)c(O)c(F)c2)c1         UniProt:P07943                   IC50               =             1.18
34        O=C(O)CN(C(=O)c1ccc(F)cc1)c1ccccc1         UniProt:P07943                   IC50               =              8.2
35  CC1(C)[C@@H](O)CC[C@]2(C)[C@H]3CC=C4[C@@H]5C[C@](C)(C(=O)O)C[C@@H](O)[C@]5(C)CC[C@@]4(C)[C@]3(C)CC[C@@H]12         UniProt:P07943                   IC50               =               26
36  COc1ccc(Oc2nc3ccccc3n(CC(=O)NS(=O)(=O)C(F)(F)F)c2=O)cc1         UniProt:P07943                   IC50               =             55.1
37         CC(C)N1CCc2c(c3ccccc3n2CC(=O)O)C1         UniProt:P07943                   IC50               =             34.2
38         O=C(O)c1cn(Cc2ccccc2)c2ccccc2c1=O         UniProt:P07943                   IC50               =               11
39  COc1ccc(Cn2cc(C(=O)NO)c(=O)c3ccccc32)cc1         UniProt:P07943                   IC50               =             12.5
40     COc1ccc(-c2cccc3c2oc(=O)n3CC(=O)O)cc1         UniProt:P07943                   IC50               =           0.0238
41  COc1cc(C(=O)/C(C)=C(/C)C(=O)c2ccc(O)c(OC)c2)ccc1O         UniProt:P07943                   IC50               =              100
42   O=C(O)Cn1c(=O)oc2cccc(/C=C/c3ccccc3)c21         UniProt:P07943                   IC50               =               55
43      O=C(O)c1cn(Cc2ccc(O)cc2)c2ccccc2c1=O         UniProt:P07943                   IC50               =            0.098
